EC50(pM), cell agonistic activity (cAMP, HTRF) for assorted binders
Target: T1, human GIP receptor (glucose-dependent insulinotropic peptide receptor, GIPR) (human, UniProt P48546 22-466)
T1 sequence (looked up): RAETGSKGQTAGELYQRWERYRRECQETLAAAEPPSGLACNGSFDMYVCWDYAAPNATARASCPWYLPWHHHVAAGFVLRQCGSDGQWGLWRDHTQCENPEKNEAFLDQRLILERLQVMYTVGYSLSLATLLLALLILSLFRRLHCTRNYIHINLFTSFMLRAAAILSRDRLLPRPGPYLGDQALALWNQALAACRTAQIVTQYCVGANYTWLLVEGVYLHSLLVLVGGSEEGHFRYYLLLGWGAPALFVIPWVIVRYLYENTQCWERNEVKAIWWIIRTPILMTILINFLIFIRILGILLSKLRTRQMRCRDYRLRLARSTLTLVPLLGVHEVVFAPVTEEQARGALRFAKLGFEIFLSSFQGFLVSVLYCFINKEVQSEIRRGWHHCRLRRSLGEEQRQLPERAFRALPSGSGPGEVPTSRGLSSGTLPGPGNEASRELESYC
Assay: cell-based or functional assay
Non-standard residues stand in square brackets, D forms with d. No end group written: not given here. Aib = CC(C)(N)C(=O)O

Y[Aib]EGTFISDYSIALDRIHQEDFVNWLLAQKG (also: long-acting conjugating component, site and structure not given here) [Peptide 12 (long-acting conjugate of GIP analog, Seq ID. 12)] = 5.14 pM

Consider the record given below.
Exercise: Given the entry Y[Aib]EGTFISDYSIALDRLHQEDFVNWLLAQKG (also: long-acting conjugating component, site and structure not given here) [Peptide 16 (long-acting conjugate of GIP analog, Seq ID. 16)] , report its measured EC50(pM), cell agonistic activity (cAMP, HTRF).
Solution: 3.77 pM
